- Measured on: T7 DNA polymerase (Escherichia phage T7, UniProt P00581, DEL118-145)
- Sequence (P00581 other isoform, or with tags, fused parts or gaps DEL118-145): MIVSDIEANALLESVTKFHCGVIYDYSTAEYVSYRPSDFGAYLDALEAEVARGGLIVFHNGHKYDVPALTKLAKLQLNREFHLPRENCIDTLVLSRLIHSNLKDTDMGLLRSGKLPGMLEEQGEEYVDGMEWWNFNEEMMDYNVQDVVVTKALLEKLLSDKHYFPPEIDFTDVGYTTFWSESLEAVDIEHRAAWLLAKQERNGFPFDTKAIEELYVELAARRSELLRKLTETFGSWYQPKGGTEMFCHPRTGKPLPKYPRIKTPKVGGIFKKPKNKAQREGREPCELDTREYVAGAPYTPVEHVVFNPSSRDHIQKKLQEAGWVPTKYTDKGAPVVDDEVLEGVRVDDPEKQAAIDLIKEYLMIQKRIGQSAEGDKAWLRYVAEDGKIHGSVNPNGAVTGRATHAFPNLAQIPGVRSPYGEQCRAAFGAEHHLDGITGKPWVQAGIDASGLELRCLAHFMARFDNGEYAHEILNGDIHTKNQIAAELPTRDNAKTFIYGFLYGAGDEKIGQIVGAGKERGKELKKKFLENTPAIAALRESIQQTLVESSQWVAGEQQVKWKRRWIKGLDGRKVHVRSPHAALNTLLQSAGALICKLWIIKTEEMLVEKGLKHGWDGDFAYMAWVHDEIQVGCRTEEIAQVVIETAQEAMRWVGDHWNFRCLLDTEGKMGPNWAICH
- Sequence (P0AA25 2-109, stated change not applied, further chain): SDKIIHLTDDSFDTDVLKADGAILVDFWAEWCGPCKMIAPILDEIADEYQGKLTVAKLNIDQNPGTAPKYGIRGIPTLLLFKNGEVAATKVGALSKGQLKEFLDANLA
- Assay type: biochemical, Bacteriophage T7
- Experimental setup: 1:1 dNTP:ddNTP; fit Y=e^M*X
Let's look at some compounds and their measured M, calculated exponential decay function.

>  <Compound>
Nc1nc2c(ncn2[C@H]2CC[C@@H](COP(=O)(O)OP(=O)(O)OP(=O)(O)O)O2)c(=O)[nH]1 [ddGTP]

>  <M, calculated exponential decay function>
-0.375

$$$$
>  <Compound>
Nc1ccn([C@H]2CC[C@@H](COP(=O)(O)OP(=O)(O)OP(=O)(O)O)O2)c(=O)n1 [ddCTP]

>  <M, calculated exponential decay function>
-0.317

$$$$
>  <Compound>
Nc1ncnc2c1ncn2[C@H]1CC[C@@H](COP(=O)(O)OP(=O)(O)OP(=O)(O)O)O1 [ddATP]

>  <M, calculated exponential decay function>
-0.356

$$$$
>  <Compound>
Cc1cn([C@H]2CC[C@@H](COP(=O)(O)OP(=O)(O)OP(=O)(O)O)O2)c(=O)[nH]c1=O [ddTTP]

>  <M, calculated exponential decay function>
-0.450

$$$$
